Documented Frequency of occurrence across a set of compounds
test: Urinary aPM after 4 h greenness (forest) exposure; assay type: in vivo, human; conditions: human urine, greenness exposure

Reference set, count: 2
CC1(C)C2CCC(C(=O)OC3OC(C(=O)O)C(O)C(O)C3O)C1C2 (single isomer, unassigned) [aPM4c, Dihydromyrtenic acid-GlcA]	0.0%
CC1=CC(OC2OC(C(=O)O)C(O)C(O)C2O)C2CC1C2(C)C (stereo not drawn) [aPM2b, verbenol glucuronide]	6.3%

# query: Frequency of occurrence of entry CC1(C)C2CC=C(C(=O)OC3OC(C(=O)O)C(O)C(O)C3O)C1C2 (single isomer, unassigned) [aPM3b, Myrtenic acid-GlcA]
87.5%

Requested read-out: Frequency of occurrence. Entry: CC1(C)C2CC1C(OC1OC(C(=O)O)C(O)C(O)C1O)C=C2C(=O)O (single isomer, unassigned) [aPM5g, Myrtenic acid-4-O-GlcA]
25.0%

Please report the recorded Frequency of occurrence for CC1(C)C2CCC(C(=O)OC3OC(C(=O)O)C(O)C(O)C3O)C1C2 (single isomer, unassigned) [aPM4e, Dihydromyrtenic acid-GlcA] .
93.8%

Give its Frequency of occurrence value. Item: CC1(C)C2CC1C(OC1OC(C(=O)O)C(O)C(O)C1O)C=C2C(=O)O (single isomer, unassigned) [aPM5e, Myrtenic acid-4-O-GlcA]
25.0%

###

experiment: Kinetic modeling of urinary aPM with a pseudo one-compartment nonlinear mixed-effects model after α-pinene inhalation; type: in vivo, human; conditions: human urine after α-pinene inhalation; pseudo one-compartment model
Returns: string. Value is rule met if measured Ke, first-order elimination rate constant is below 0.8 h⁻¹, and rule not met if it is greater than or equal to it.

A selection of reference data follows.
CC1(C)C2CC=C(C(=O)OC3OC(C(=O)O)C(O)C(O)C3O)C1C2 (single isomer, unassigned) [aPM3a, Myrtenic acid-GlcA]	rule met
CC1(C)C2CC=C(C(=O)OC3OC(C(=O)O)C(O)C(O)C3O)C1C2 (single isomer, unassigned) [aPM3b, Myrtenic acid-GlcA]	rule not met
CC1(C)C2CC1C(OC1OC(C(=O)O)C(O)C(O)C1O)C=C2C(=O)O (single isomer, unassigned) [aPM5e, Myrtenic acid-4-O-GlcA]	rule not met
CC1(C)C2CCC(C(=O)OC3OC(C(=O)O)C(O)C(O)C3O)C1C2 (single isomer, unassigned) [aPM4e, Dihydromyrtenic acid-GlcA]	rule met

Below: the item to evaluate.
Record CC1(C)C2CC1C(OC1OC(C(=O)O)C(O)C(O)C1O)C=C2C(=O)O (single isomer, unassigned) [aPM5a, Myrtenic acid-4-O-GlcA] : is its Ke, first-order elimination rate constant strictly below 0.8 h⁻¹?
rule met

###

assay: Urinary aPM after 4 h greenness (forest) exposure; assay type: in vivo, human; details: share of total aPM response
Please mark yes (1) if the recorded Proportion (observed) after greenness exposure is equal to or greater than 0.7%, and no (0) if it falls below.

Consider the following illustrative entries.
CC1(C)C2CCC(C(=O)OC3OC(C(=O)O)C(O)C(O)C3O)C1C2 (single isomer, unassigned) [aPM4e, Dihydromyrtenic acid-GlcA]	yes (1)
CC1(C)C2CCC(C(=O)OC3OC(C(=O)O)C(O)C(O)C3O)C1C2 (single isomer, unassigned) [aPM4a, Dihydromyrtenic acid-GlcA]	no (0)
CC1=CC(OC2OC(C(=O)O)C(O)C(O)C2O)C2CC1C2(C)C (centres unmarked) [aPM2b, verbenol glucuronide]	no (0)
CC1(C)C2CC1C(C(=O)O)=CC2=O (centres unmarked)	yes (1)

Decide: Proportion (observed) after greenness exposure of CC1(C)C2CC=C(COC3OC(C(=O)O)C(O)C(O)C3O)C1C2 (centres unmarked) [aPM2c, myrtenol glucuronide] >= 0.7%?
no (0)

Entry CC1(C)C2CC1C(OC1OC(C(=O)O)C(O)C(O)C1O)C=C2C(=O)O (single isomer, unassigned) [aPM5g, Myrtenic acid-4-O-GlcA] : is its Proportion (observed) after greenness exposure no less than 0.7%?
no (0)

Can CC1(C)C2CC=C(C(=O)OC3OC(C(=O)O)C(O)C(O)C3O)C1C2 (single isomer, unassigned) be said to have Proportion (observed) after greenness exposure at or above 0.7%?
yes (1)

Entry CC1(C)C2CCC(C(=O)OC3OC(C(=O)O)C(O)C(O)C3O)C1C2 (single isomer, unassigned) [aPM4d, Dihydromyrtenic acid-GlcA] : is its Proportion (observed) after greenness exposure no less than 0.7%?
yes (1)

# bool: Proportion (observed) after greenness exposure of CC1(C)C2CC1C(OC1OC(C(=O)O)C(O)C(O)C1O)C=C2C(=O)O (single isomer, unassigned) [aPM5e, Myrtenic acid-4-O-GlcA] >= 0.7%
yes (1)

Could you verify whether the entry CC1(C)C2CC1C(OC1OC(C(=O)O)C(O)C(O)C1O)C=C2C(=O)O (single isomer, unassigned) [aPM5b, Myrtenic acid-4-O-GlcA] shows Proportion (observed) after greenness exposure of no less than 0.7%?
no (0)

The reported numbers originate from paper PMC12477777.
